Hey, just so you know, these numbers are from patent US20210214461A1.

molecular target: pre-existing anti-scFv903 antibodies in human serum H80 (human); assay: competition ADA bridging ELISA
MEASURED QUANTITY: signal change in competition ELISA (% reduction in OD) (%)

{"BINDER": "scFv 791 (scFv) scFv: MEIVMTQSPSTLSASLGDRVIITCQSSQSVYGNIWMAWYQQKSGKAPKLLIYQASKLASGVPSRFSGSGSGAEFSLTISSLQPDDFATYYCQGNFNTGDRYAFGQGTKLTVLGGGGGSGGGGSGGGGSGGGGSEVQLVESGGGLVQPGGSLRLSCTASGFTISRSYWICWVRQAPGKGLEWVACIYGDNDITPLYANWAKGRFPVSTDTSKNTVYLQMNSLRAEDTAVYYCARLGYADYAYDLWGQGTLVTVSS", "ASSAY RESULT": -85}
{"BINDER": "scFv 961 (scFv) scFv: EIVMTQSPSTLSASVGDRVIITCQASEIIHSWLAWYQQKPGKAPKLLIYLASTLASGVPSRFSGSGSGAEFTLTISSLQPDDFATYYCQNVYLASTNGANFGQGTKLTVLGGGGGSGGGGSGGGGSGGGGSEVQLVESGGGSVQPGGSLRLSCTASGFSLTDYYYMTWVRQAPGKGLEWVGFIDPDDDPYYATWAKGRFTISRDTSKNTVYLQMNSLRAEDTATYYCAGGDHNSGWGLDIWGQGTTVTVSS", "ASSAY RESULT": -55}
{"BINDER": "scFv105 (scFv) scFv: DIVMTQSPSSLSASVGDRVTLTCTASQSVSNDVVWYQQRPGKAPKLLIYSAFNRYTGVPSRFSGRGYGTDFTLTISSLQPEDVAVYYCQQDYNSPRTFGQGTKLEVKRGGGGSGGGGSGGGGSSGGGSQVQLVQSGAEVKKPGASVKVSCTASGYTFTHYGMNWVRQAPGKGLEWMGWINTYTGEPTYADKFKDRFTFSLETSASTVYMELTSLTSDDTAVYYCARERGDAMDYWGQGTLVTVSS", "ASSAY RESULT": -51}
{"BINDER": "scFv 903 (scFv) scFv: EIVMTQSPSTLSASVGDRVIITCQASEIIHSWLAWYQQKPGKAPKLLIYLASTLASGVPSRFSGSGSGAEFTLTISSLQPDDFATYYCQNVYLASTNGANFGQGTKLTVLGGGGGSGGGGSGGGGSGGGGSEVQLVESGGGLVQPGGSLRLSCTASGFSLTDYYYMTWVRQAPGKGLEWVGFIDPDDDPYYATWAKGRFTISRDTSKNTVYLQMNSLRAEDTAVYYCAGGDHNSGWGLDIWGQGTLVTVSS", "ASSAY RESULT": -87}
